target: T1, UL128/UL131A co-expressed from MVA in BHK-21 cells (human cytomegalovirus, UniProt P16837 28-171; F5HET4 19-129); test: intracellular FC, MVA-infected BHK-21
T1 construct: whole, on cells
T1 sequence (P16837 28-171 limits assumed, chain 1 of 2): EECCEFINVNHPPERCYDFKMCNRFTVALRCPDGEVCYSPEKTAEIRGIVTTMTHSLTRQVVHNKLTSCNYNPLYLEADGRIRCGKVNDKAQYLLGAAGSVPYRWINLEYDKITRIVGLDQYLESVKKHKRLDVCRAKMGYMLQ
T1 sequence (F5HET4 19-129 limits assumed, chain 2 of 2): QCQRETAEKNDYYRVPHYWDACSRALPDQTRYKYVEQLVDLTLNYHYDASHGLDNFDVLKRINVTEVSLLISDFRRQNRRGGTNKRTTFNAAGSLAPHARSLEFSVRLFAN

binder: 21F6 (antibody, V domains shown, also called NAb 21F6) VH: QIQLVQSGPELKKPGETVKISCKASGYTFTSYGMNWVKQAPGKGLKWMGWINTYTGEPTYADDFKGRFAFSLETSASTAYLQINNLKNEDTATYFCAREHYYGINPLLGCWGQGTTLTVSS VL: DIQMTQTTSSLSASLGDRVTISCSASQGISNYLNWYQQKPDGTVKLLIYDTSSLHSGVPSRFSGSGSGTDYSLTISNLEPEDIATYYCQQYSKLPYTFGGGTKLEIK
binding result: no binding
//
binder: 1B2 (antibody, V domains shown, also called NAb 1B2) VH: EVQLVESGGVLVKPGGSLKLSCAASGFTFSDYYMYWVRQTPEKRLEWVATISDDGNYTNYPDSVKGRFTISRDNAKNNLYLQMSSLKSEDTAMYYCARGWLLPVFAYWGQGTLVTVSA VL: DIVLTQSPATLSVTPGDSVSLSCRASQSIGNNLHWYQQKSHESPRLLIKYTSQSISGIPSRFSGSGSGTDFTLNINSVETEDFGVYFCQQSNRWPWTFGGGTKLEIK
binding result: no binding
//
binder: 12E2 (antibody, V domains shown, also called NAb 12E2) VH: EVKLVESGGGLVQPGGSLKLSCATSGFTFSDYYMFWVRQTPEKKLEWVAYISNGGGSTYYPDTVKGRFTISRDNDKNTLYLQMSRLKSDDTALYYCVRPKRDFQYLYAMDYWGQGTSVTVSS VL: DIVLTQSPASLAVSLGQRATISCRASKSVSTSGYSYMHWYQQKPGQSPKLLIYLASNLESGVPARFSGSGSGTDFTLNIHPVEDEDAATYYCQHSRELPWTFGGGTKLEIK
binding result: no binding

Data provenance: patent US20180230200A1
